Source: patent US20080226718A1

Test system: encephalitogenic lymphocytes
Assay Method Text: Spontaneous adhesion of encephalitogenic T cells on purified VCAM-1
Format: cell-based, SJL mice
Assay Setup: Mus musculus, Lymphocyte; [cpd] 50 μM; 1 h; read-out: Inhibition of Spontaneous Adhesion in encephalitogenic lymphocytes (% of control/non-treated cells) VCAM-1 (converted)
Please go through the items and note down their inhibition at 50 µM.
Please state the figure in %; there is no need to write the unit.

// inhibition at 50 µM lookup, compound = COC(=O)c1[nH]c2cc(OC)c(OC)cc2c1-c1ccc(OC)cc1 , result: 92.4

// inhibition at 50 µM lookup, compound = COc1ccc(-c2c(C#N)[nH]c3cc(OC)c(OC)cc23)cc1 , result: 89

// inhibition at 50 µM lookup, compound = COc1ccc(-c2c(C#N)n(CCCO)c3cc(OC)c(OC)cc23)cc1 , result: 84

// inhibition at 50 µM lookup, compound = COC(=O)c1[nH]c2cc(OC)c(OC)cc2c1-c1ccccc1 , result: 71.4

// inhibition at 50 µM lookup, compound = COc1ccc(-c2c3n(c4cc(OC)c(OC)cc24)CCNC3=O)cc1 , result: 82

---

Test system: PMNs
Assay Method Text: Chemokine-induced rapid adhesion of PMNs to fibrinogen (fMLP)
Format: cell-based
Assay Setup: Homo sapiens, 2 min, [cpd] 25 μM, fMLP 100 nM
Quantity Name: inhibition at 25 µM (%)
Please state the figure in %; there is no need to write the unit.

// inhibition at 25 µM lookup, compound = COc1ccc(-c2c(C#N)n(CCCN(C)C)c3cc(OC)c(OC)cc23)cc1 [Example 55] , result: 19

// inhibition at 25 µM lookup, compound = COc1cc2[nH]c(C(=O)N(C)C)c(-c3ccccc3)c2cc1OC [Example 46] , result: 28.7

// inhibition at 25 µM lookup, compound = CCOC(=O)CCc1[nH]c2cc(OC)c(OC)cc2c1-c1ccc(OC)cc1 [Example 22] , result: 13.8

// inhibition at 25 µM lookup, compound = COc1ccc(-c2c(C#N)n(CCN(C)C)c3cc(OC)c(OC)cc23)cc1 [Example 18] , result: 10.4

// inhibition at 25 µM lookup, compound = COc1ccc(-c2c(-c3nnc(C)o3)[nH]c3cc(OC)c(OC)cc23)cc1 [Example 77] , result: 24.7

// inhibition at 25 µM lookup, compound = COc1cc2[nH]c(C(=O)N3CCOCC3)c(-c3ccccc3)c2cc1OC [Example 47] , result: 37.1

// inhibition at 25 µM lookup, compound = COc1ccc(-c2c3n(c4cc(OC)c(OC)cc24)CC(=O)NC3)cc1 [Example 66] , result: 11.5

// inhibition at 25 µM lookup, compound = COc1cc2[nH]c(-c3nnc[nH]3)c(-c3ccccc3)c2cc1OC [Example 58] , result: 45

// inhibition at 25 µM lookup, compound = CNC(=O)c1[nH]c2cc(OC)c(OC)cc2c1-c1ccccc1 [Example 48] , result: 48.9

---

Tested on: monocytes
Assay Method Text: Chemotaxis assay, monocytes (fMLP)
Type: cell-based
Assay Setup: Homo sapiens, Monocyte; [cpd] 25 μM; fMLP 10 nM; 2 h
Protocol: PMNs and monocytes migration was assessed using 1 or 3-μm pore size transwells (Bio-Coat Becton-Dickinson), while lymphocytes by using 5-elm pore size transwells. Cells were in RPMI1640, containing 10% heat-inactivated Fetal Calf Serum (FCS) and 20 mM HEPES, pH 7.3, at 2×10^6/ml. […] Migration was evaluated after 2 h for PMNs and monocytes and after 4 h for lymphocytes. fMLP 10 nM (PMNs and monocytes) and MIP-3β 100 nM (lymphocytes) were utilized as chemoattractants. […]
So basically: inhibition at 25 µM at 70% or higher? That is 1.0. Lower than 70%? That is 0.0.

Query: Reported inhibition at 25 µM at or above 70%? COc1cc2[nH]c(C(=O)N3CCOCC3)c(-c3ccccc3)c2cc1OC
Response: 1.0

Query: Reported inhibition at 25 µM at or above 70%? COc1cc2[nH]c(C(=O)N(C)C)c(-c3ccccc3)c2cc1OC
Response: 0.0

Query: Reported inhibition at 25 µM at or above 70%? COc1ccc(-c2c(C#N)n(CCCN(C)C)c3cc(OC)c(OC)cc23)cc1
Response: 1.0

Query: Reported inhibition at 25 µM at or above 70%? COc1cc2[nH]c(-c3nnc[nH]3)c(-c3ccccc3)c2cc1OC
Response: 1.0

Query: Reported inhibition at 25 µM at or above 70%? COc1ccc(-c2c3n(c4cc(OC)c(OC)cc24)CC(=O)NC3)cc1
Response: 1.0

Query: Reported inhibition at 25 µM at or above 70%? CCOC(=O)CCc1[nH]c2cc(OC)c(OC)cc2c1-c1ccc(OC)cc1
Response: 1.0

Query: Reported inhibition at 25 µM at or above 70%? COc1ccc(-c2c(C#N)n(CCN(C)C)c3cc(OC)c(OC)cc23)cc1
Response: 0.0

Query: Reported inhibition at 25 µM at or above 70%? CNC(=O)c1[nH]c2cc(OC)c(OC)cc2c1-c1ccccc1
Response: 1.0

Query: Reported inhibition at 25 µM at or above 70%? COc1ccc(-c2c(-c3nnc(C)o3)[nH]c3cc(OC)c(OC)cc23)cc1
Response: 0.0
